# Read-out: Vascular cell adhesion molecule 1 (VCAM1), VCAM1 (gene 7412)
# Experiment notes: BSK_LPS_VCAM1: BioMAP Diversity Plus: LPS Assay for Vascular cell adhesion molecule 1 (VCAM1) Biomarker Activity (AID 2283086)
# Setup conditions: primary human HUVEC with PBMC; actives raise or lower the signal
# Experimental: BSK_LPS is a cell-based, multiplexed-readout assay that uses umbilical vein endothelium and peripheral blood mononuclear cells, a human vascular primary cell co-culture, with measurements taken at 24 hours after chemical dosing in a 96-well plate.BSK_LPS_VCAM1 is an assay component measured in the BSK_LPS assay. It measures VCAM-1 antibody related to regulation of gene expression using ELISA technology.Data from the assay component BSK_LPS_VCAM1 was analyzed into 1 assay endpoint. […]
Active and inactive are the calls of the source. How the source made its calls: active means hit-call score of the fitted dose curve at least 0.9, where 1 is the maximum; inactive means score below 0.9.
Classes used: active, inactive

Compound: CS(=O)(=O)c1ccc([C@@H](CC2CCCC2)C(=O)Nc2cnccn2)cc1Cl
Category: inactive

Compound: CCCCC=O
Category: inactive

Compound: Cc1ccc(C(=O)c2ccccc2)cc1
Category: inactive

Compound: C[C@]12CC[C@@H]3c4ccc(O)cc4CC[C@H]3[C@@H]1C[C@@H](O)[C@@H]2O
Category: inactive

Compound: CCCCC(CC)C(=O)O (stereo not drawn)
Category: inactive

Compound: C=CC(C)(CCC=C(C)C)OC(C)=O (stereo not drawn)
Category: inactive

Compound: CC[N+](CC)(CC)Cc1ccccc1
Category: inactive

Compound: CC(C)(C)c1ccc(O)c(O)c1
Category: active

Compound: Oc1ccc(Cc2ccccc2O)cc1
Category: inactive

Compound: CCCCCCCCCCCCCCCCCC[N+](C)(C)Cc1ccccc1
Category: active

Compound: Clc1ccc(Nc2nnc(Cc3ccncc3)c3ccccc23)cc1
Category: inactive

Compound: CCCCCc1ccc(O)cc1
Category: active

Compound: C=CC(=O)OCCC(F)(F)C(F)(F)C(F)(F)C(F)(F)C(F)(F)C(F)(F)C(F)(F)C(F)(F)F
Category: inactive

---

# Tested target: Bile acid receptor (Homo sapiens) (UniProt Q96RI1)
# Sequence (Q96RI1 whole entry, looked up): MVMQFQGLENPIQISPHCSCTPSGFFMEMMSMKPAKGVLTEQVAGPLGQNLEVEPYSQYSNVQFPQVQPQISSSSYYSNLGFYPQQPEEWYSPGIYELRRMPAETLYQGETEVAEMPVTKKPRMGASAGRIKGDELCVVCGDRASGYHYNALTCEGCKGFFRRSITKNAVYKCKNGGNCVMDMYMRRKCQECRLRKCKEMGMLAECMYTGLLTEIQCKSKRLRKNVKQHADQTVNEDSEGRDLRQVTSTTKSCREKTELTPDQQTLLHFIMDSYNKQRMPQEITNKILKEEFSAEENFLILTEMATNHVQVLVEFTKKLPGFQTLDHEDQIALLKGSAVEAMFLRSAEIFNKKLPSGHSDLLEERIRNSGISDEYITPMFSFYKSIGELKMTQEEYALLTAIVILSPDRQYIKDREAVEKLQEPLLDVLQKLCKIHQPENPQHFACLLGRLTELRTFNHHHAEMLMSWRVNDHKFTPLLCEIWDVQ
# Experiment notes: ATG_FXR_TRANS: Attagene TRANS-FACTORIAL HepG2 Assay for Farnesoid X Receptor (FXR) (AID 2282979);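 further: hits raise reporter mRNA above DMSO so AC50 marks FXR activation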
# Setup conditions: HepG2 Attagene TRANS FXR-GAL4 reporter transcription
Results filed as inconclusive are left out. Calls of active or inactive are those of the source. The calls were made as follows: active = hit-call score of the fitted dose curve at least 0.9, where 1 is the maximum; inconclusive = response in the unintended direction; inactive = score below 0.9.
Classes used: TRUE = active, FALSE = inactive

Molecule: CCCCc1oc2ccccc2c1C(=O)c1cc(I)c(OCCN(CC)CC)c(I)c1
Tested target: Bile acid receptor (Homo sapiens) (UniProt Q96RI1)
Category: FALSE

Molecule: C/C=C/C(=O)C1=C(C)CCCC1(C)C
Tested target: Bile acid receptor (Homo sapiens) (UniProt Q96RI1)
Category: FALSE

Molecule: O=C(C=C(O)C(F)(F)F)C(F)(F)F
Tested target: Bile acid receptor (Homo sapiens) (UniProt Q96RI1)
Category: FALSE

Molecule: COC1=CC(=O)C[C@@H](C)[C@]12Oc1c(Cl)c(OC)cc(OC)c1C2=O
Tested target: Bile acid receptor (Homo sapiens) (UniProt Q96RI1)
Category: FALSE

Molecule: Nc1ccn([C@@H]2O[C@H](CO)[C@@H](O)C2O)c(=O)n1 (some centres undefined)
Tested target: Bile acid receptor (Homo sapiens) (UniProt Q96RI1)
Category: FALSE

Molecule: Nc1cc(Cl)c(-c2cc(Cl)c(N)cc2Cl)cc1Cl
Tested target: Bile acid receptor (Homo sapiens) (UniProt Q96RI1)
Category: TRUE

Molecule: CC(C)[C@@H]1CC[C@@H](C)C[C@H]1O
Tested target: Bile acid receptor (Homo sapiens) (UniProt Q96RI1)
Category: FALSE

Molecule: CN(C)c1ccc(C(=C2C=CC(=[N+](C)C)C=C2)c2ccccc2)cc1
Tested target: Bile acid receptor (Homo sapiens) (UniProt Q96RI1)
Category: FALSE

Molecule: O=C(O)CCC(F)(F)C(F)(F)C(F)(F)C(F)(F)C(F)(F)F
Tested target: Bile acid receptor (Homo sapiens) (UniProt Q96RI1)
Category: FALSE

Molecule: FC(F)(F)C(F)(F)C(F)(F)Br
Tested target: Bile acid receptor (Homo sapiens) (UniProt Q96RI1)
Category: FALSE

Molecule: Nc1ccc(O)c(C(=O)O)c1
Tested target: Bile acid receptor (Homo sapiens) (UniProt Q96RI1)
Category: FALSE

Molecule: Clc1ccc(Nc2nnc(Cc3ccncc3)c3ccccc23)cc1
Tested target: Bile acid receptor (Homo sapiens) (UniProt Q96RI1)
Category: FALSE

Molecule: FC(F)(F)N1C(F)(F)C(F)(F)OC(F)(F)C1(F)F
Tested target: Bile acid receptor (Homo sapiens) (UniProt Q96RI1)
Category: FALSE

Molecule: Cc1cc(C(C)(C)C)c(O)c(C(C)(C)C)c1
Tested target: Bile acid receptor (Homo sapiens) (UniProt Q96RI1)
Category: FALSE

Molecule: O=C(c1ccccc1)c1ccccc1
Tested target: Bile acid receptor (Homo sapiens) (UniProt Q96RI1)
Category: FALSE

Molecule: FC(OC(F)(F)C(F)(F)C(F)(F)F)C(F)(F)F (centres undefined)
Tested target: Bile acid receptor (Homo sapiens) (UniProt Q96RI1)
Category: FALSE

Molecule: FC(F)=C(F)C(F)(F)C(F)(F)C(F)(F)C(F)F
Tested target: Bile acid receptor (Homo sapiens) (UniProt Q96RI1)
Category: FALSE

Molecule: Cc1ccc(C(=O)c2ccccc2)cc1
Tested target: Bile acid receptor (Homo sapiens) (UniProt Q96RI1)
Category: FALSE

Molecule: FC(F)(F)C1(F)C(F)(F)C(F)(F)C(F)(F)C1(F)F
Tested target: Bile acid receptor (Homo sapiens) (UniProt Q96RI1)
Category: FALSE

---

# Experiment notes: ATG_Sox_CIS: Attagene CIS-FACTORIAL HepG2 Assay for human SRY-box transcription factor (SOX) (AID 2282960)
# Setup conditions: HepG2 Attagene cis-factorial SOX reporter, mRNA; actives raise or lower the signal
Active and inactive are the calls of the source. Rule for the calls: active = hit-call score of the fitted dose curve at least 0.9, where 1 is the maximum; inactive = score below 0.9.
Classes used: 1 for active, 0 for inactive

Molecule: CC(C)C=O
Category: 0
--
Molecule: O=C1c2ccccc2C(=O)c2c(O)c(O)cc(O)c21
Category: 0
--
Molecule: O=S(=O)(O)C(F)(F)C(F)(F)C(F)(F)C(F)(F)C(F)(F)C(F)(F)C(F)(F)C(F)(F)C(F)(F)C(F)(F)F
Category: 0
--
Molecule: C=Cc1ccc(O)c(OC)c1
Category: 0
--
Molecule: OCC1CCC(CO)CC1 (centres undefined)
Category: 0
--
Molecule: Cc1cncc(C)c1
Category: 0
--
Molecule: Cc1cc(Cc2cc(C)cc(C(C)(C)C)c2O)c(O)c(C(C)(C)C)c1
Category: 1
--
Molecule: FC(OC(F)(F)C(F)(F)C(F)(F)F)C(F)(F)F (centres undefined)
Category: 0
--
Molecule: CCOCCOCC
Category: 0
--
Molecule: CC(C)(O)C(=O)c1ccccc1
Category: 0
--
Molecule: c1cnc2c(c1)ccc1cccnc12
Category: 0
--
Molecule: FC(F)(F)C(F)(F)C(F)(F)Br
Category: 0
--
Molecule: CCCCCCCCCCCCCC[n+]1ccccc1
Category: 0
--
Molecule: COC1=CC(=O)C[C@@H](C)[C@]12Oc1c(Cl)c(OC)cc(OC)c1C2=O
Category: 0

---

# Read-out: Vascular cell adhesion molecule 1 (VCAM1), VCAM1 (gene 7412)
# Experiment notes: BSK_LPS_VCAM1: BioMAP Diversity Plus: LPS Assay for Vascular cell adhesion molecule 1 (VCAM1) Biomarker Activity (AID 2283086)
# Setup conditions: primary human HUVEC with PBMC; actives raise or lower the signal
The source made the active and inactive calls. The calls were made as follows: active = hit-call score of the fitted dose curve at least 0.9, where 1 is the maximum; inactive = score below 0.9.

Compound: CCC(C)c1ccccc1O (stereo not drawn)
AC50: inactive
//
Compound: Cc1ccc(N=Nc2c(O)ccc3ccccc23)c(C)c1
AC50: inactive
//
Compound: O=C1NS(=O)(=O)c2ccccc21
AC50: inactive
//
Compound: COc1cccc(O)c1
AC50: inactive
//
Compound: OCCN1CN(CCO)CN(CCO)C1
AC50: 31.1 µM (active)
//
Compound: CN(C)CCOC(c1ccccc1)c1ccccc1
AC50: inactive
//
Compound: OCC(F)(F)C(F)(F)C(F)(F)C(F)(F)C(F)(F)C(F)(F)C(F)(F)C(F)(F)C(F)(F)C(F)(F)C(F)(F)F
AC50: inactive
//
Compound: Cc1cccc2c1ccc1ccccc12
AC50: inactive
//
Compound: N=C(N)c1ccc(OCCCCCOc2ccc(C(=N)N)cc2)cc1
AC50: inactive
//
Compound: CN(C)c1ccc(C(=C2C=CC(=[N+](C)C)C=C2)c2ccccc2)cc1
AC50: 0.00781 µM (active)
//
Compound: CC(=O)Nc1ccc(O)cc1
AC50: inactive
//
Compound: O=C1OC2(c3ccccc31)c1cc(I)c(O)c(I)c1Oc1c2cc(I)c(O)c1I
AC50: 9.02 µM (active)
//
Compound: CC1=NN(c2ccccc2)C(=O)C1
AC50: inactive
